The reported measurements were obtained from PubChem BioAssay AID1963976.

Test system: 435261-313-R-J1-PDC tumor spheroid viability
assay info: Anticancer human tumor 435261-313-R-J1-PDC patient-derived colon adenocarcinoma cell line growth inhibition [PI3K]
assay context: second compound 0.0316 µM; first compound 1 µM; active compounds read low; spheroids with HUVEC and MSC
Mark rule met only when viability, T/C stays strictly below 70%. Values equal to the cut-off are rule not met.

compound	discrete label
C#Cc1c(F)ccc2cc(O)cc(-c3ncc4c(N5CC6CCC(C5)N6)nc(OCC56CCCN5CC(F)C6)nc4c3F)c12 (stereo unspecified) + CC(Nc1ncnc2nc[nH]c12)c1cc2cccc(Cl)c2c(=O)n1-c1ccccc1	rule not met
CC(C)NCC(C(=O)N1CCN(c2ncnc3c2C(C)CC3O)CC1)c1ccc(Cl)cc1 (stereo unspecified) + COc1c(OCCCN2CCOCC2)ccc2c3n(c(=NC(=O)c4cnc(N)nc4)nc12)CCN3	rule met
CNC(=O)c1ccc(N2C(=S)N(c3ccc(C#N)c(C(F)(F)F)c3)C(=O)C2(C)C)cc1F + CC(Nc1ncnc2nc[nH]c12)c1cc2cccc(Cl)c2c(=O)n1-c1ccccc1	rule not met
Cn1ncc(Cl)c1-c1cc(C(=O)NC(CN)Cc2cccc(F)c2)sc1Cl (stereo unspecified) + CC(Nc1ncnc2nc[nH]c12)c1cc2cccc(Cl)c2c(=O)n1-c1ccccc1	rule met
CC1(C)CCC(Nc2ncc(C(F)(F)F)c(-c3c[nH]c4c(P(C)(C)=O)c(C#N)ccc34)n2)CN1 (stereo unspecified) + CC(Nc1ccc2c(c1)OCCn1cc(N3C(=O)OCC3C(F)F)nc1-2)C(N)=O	rule met
CC1(C)CCC(Nc2ncc(C(F)(F)F)c(-c3c[nH]c4c(P(C)(C)=O)c(C#N)ccc34)n2)CN1 (stereo unspecified) + CC(Nc1ncnc2nc[nH]c12)c1cc2cccc(Cl)c2c(=O)n1-c1ccccc1	rule met
CNC(=O)c1ccc(N2C(=S)N(c3ccc(C#N)c(C(F)(F)F)c3)C(=O)C2(C)C)cc1F + Cc1nc(NC(=O)N2CCCC2C(N)=O)sc1-c1ccnc(C(C)(C)C(F)(F)F)c1	rule not met
Cn1nccc1Nc1nccc(-c2ccn(C(CO)c3ccc(Cl)c(F)c3)c(=O)c2)n1 (stereo unspecified) + Cc1nc(NC(=O)N2CCCC2C(N)=O)sc1-c1ccnc(C(C)(C)C(F)(F)F)c1	rule met
CC1(C)CCC(CN2CCN(c3ccc(C(=O)NS(=O)(=O)c4ccc(NCC5CCOCC5)c([N+](=O)[O-])c4)c(Oc4cnc5[nH]ccc5c4)c3)CC2)=C(c2ccc(Cl)cc2)C1 + COc1c(OCCCN2CCOCC2)ccc2c3n(c(=NC(=O)c4cnc(N)nc4)nc12)CCN3	rule met
Cn1nccc1Nc1nccc(-c2ccn(C(CO)c3ccc(Cl)c(F)c3)c(=O)c2)n1 (stereo unspecified) + CC(Nc1ncnc2nc[nH]c12)c1cc2cccc(Cl)c2c(=O)n1-c1ccccc1	rule met

====

List of viability, T/C values.
System: 435261-313-R-J1-PDC tumor spheroid viability
assay info: Anticancer human tumor 435261-313-R-J1-PDC cell line growth inhibition [PI3K];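 further: spheroids exposed to compounds for 7 days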
assay context: second compound 0.1 µM; first compound 1 µM; active compounds read low; spheroids with HUVEC and MSC

compound	viability, T/C (%)
CNC(=O)c1ccc(N2C(=S)N(c3ccc(C#N)c(C(F)(F)F)c3)C(=O)C2(C)C)cc1F + Cc1nc(NC(=O)N2CCCC2C(N)=O)sc1-c1ccnc(C(C)(C)C(F)(F)F)c1	61.4
CNC(=O)c1ccc(N2C(=S)N(c3ccc(C#N)c(C(F)(F)F)c3)C(=O)C2(C)C)cc1F + COc1c(OCCCN2CCOCC2)ccc2c3n(c(=NC(=O)c4cnc(N)nc4)nc12)CCN3	15
CCCS(=O)(=O)Nc1ccc(F)c(C(=O)c2c[nH]c3ncc(-c4ccc(Cl)cc4)cc23)c1F + Cc1nc(NC(=O)N2CCCC2C(N)=O)sc1-c1ccnc(C(C)(C)C(F)(F)F)c1	83.9
C#Cc1c(F)ccc2cc(O)cc(-c3ncc4c(N5CC6CCC(C5)N6)nc(OCC56CCCN5CC(F)C6)nc4c3F)c12 (stereo not given) + CC(Nc1ncnc2nc[nH]c12)c1cc2cccc(Cl)c2c(=O)n1-c1ccccc1	82
CC(Cn1ccc(-c2ccc(C#N)c(Cl)c2)n1)NC(=O)c1cc(C(C)O)[nH]n1 (stereo not given) + CC(Nc1ccc2c(c1)OCCn1cc(N3C(=O)OCC3C(F)F)nc1-2)C(N)=O	44

====

System: 435261-313-R-J1-PDC tumor spheroid viability
assay info: Anticancer human tumor 435261-313-R-J1-PDC cell line growth inhibition [PI3K]; active means viability on the fitted dose curve at most 10% of control; inactive means the rest;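 further: spheroids exposed to compounds for 7 days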
assay context: second compound 10 µM; first compound 0.01 µM; spheroids with HUVEC and MSC
Outcome codes: active, inactive

> print(dat)
                                   molecule  discrete.label
1  CC(=O)c1c(C)c2cnc(Nc3ccc(N4CCNCC4)cn3)nc2n(C2CCCC2)c1=O + CC(Nc1ncnc2nc[nH]c12)c1cc2cccc(Cl)c2c(=O)n1-c1ccccc1        inactive
2  CC(C)n1nc(-c2ccc3oc(N)nc3c2)c2c(N)ncnc21 + Cc1nc(NC(=O)N2CCCC2C(N)=O)sc1-c1ccnc(C(C)(C)C(F)(F)F)c1          active
3  Cn1ncnc1[C@H]1c2n[nH]c(=O)c3cc(F)cc(c23)N[C@@H]1c1ccc(F)cc1 + CC(Nc1ncnc2nc[nH]c12)c1cc2cccc(Cl)c2c(=O)n1-c1ccccc1        inactive

====

Test system: 435261-313-R-J1-PDC tumor spheroid viability
assay info: Anticancer human tumor 435261-313-R-J1-PDC cell line growth inhibition [PI3K];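 further: spheroids exposed to compounds for 7 days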
assay context: compound 0.1 µM; active compounds read low; spheroids with HUVEC and MSC
measured attribute: viability, T/C

> print(dat)
                                   compound      observed.measurement
1  CC(Nc1ccc2c(c1)OCCn1cc(N3C(=O)OCC3C(F)F)nc1-2)C(N)=O (stereo not given)  31.2% [middle of 7 runs]
2  Cn1ncnc1[C@H]1c2n[nH]c(=O)c3cc(F)cc(c23)N[C@@H]1c1ccc(F)cc1  62.6% [middle of 4 runs]
3  Cc1nc(NC(=O)N2CCCC2C(N)=O)sc1-c1ccnc(C(C)(C)C(F)(F)F)c1 (stereo not given)  82.1% [middle of 6 runs]
4  CC1(C)CCC(Nc2ncc(C(F)(F)F)c(-c3c[nH]c4c(P(C)(C)=O)c(C#N)ccc34)n2)CN1 (stereo not given)  59.7% [middle of 4 runs]
5  COc1c(OCCCN2CCOCC2)ccc2c3n(c(=NC(=O)c4cnc(N)nc4)nc12)CCN3  15.8% [middle of 6 runs]

====

System: 435261-313-R-J1-PDC tumor spheroid viability
assay info: Anticancer human tumor 435261-313-R-J1-PDC cell line growth inhibition [PI3K];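 further: spheroids exposed to compounds for 7 days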
assay context: second compound 0.0316 µM; first compound 0.0316 µM; active compounds read low; spheroids with HUVEC and MSC
measured attribute: viability, T/C (%)

compound	assayed target	measured attribute	observed measurement
Cn1nccc1Nc1nccc(-c2ccn(C(CO)c3ccc(Cl)c(F)c3)c(=O)c2)n1 (stereo not given) + CC(Nc1ccc2c(c1)OCCn1cc(N3C(=O)OCC3C(F)F)nc1-2)C(N)=O	435261-313-R-J1-PDC tumor spheroid viability	viability, T/C	68
C=CC(=O)N1CCN(c2nc(=O)n(-c3c(C)ccnc3C(C)C)c3nc(-c4c(O)cccc4F)c(F)cc23)C(C)C1 (stereo not given) + CC(Nc1ccc2c(c1)OCCn1cc(N3C(=O)OCC3C(F)F)nc1-2)C(N)=O	435261-313-R-J1-PDC tumor spheroid viability	viability, T/C	70.7
CC(=O)c1c(C)c2cnc(Nc3ccc(N4CCNCC4)cn3)nc2n(C2CCCC2)c1=O + CC(Nc1ccc2c(c1)OCCn1cc(N3C(=O)OCC3C(F)F)nc1-2)C(N)=O	435261-313-R-J1-PDC tumor spheroid viability	viability, T/C	69.1
CCN1CCN(Cc2ccc(Nc3ncc(F)c(-c4cc(F)c5nc(C)n(C(C)C)c5c4)n3)nc2)CC1 + CC(Nc1ccc2c(c1)OCCn1cc(N3C(=O)OCC3C(F)F)nc1-2)C(N)=O	435261-313-R-J1-PDC tumor spheroid viability	viability, T/C	47.3
C=CC(=O)N1CCN(c2nc(=O)n(-c3c(C)ccnc3C(C)C)c3nc(-c4c(O)cccc4F)c(F)cc23)C(C)C1 (stereo not given) + CC(Nc1ncnc2nc[nH]c12)c1cc2cccc(Cl)c2c(=O)n1-c1ccccc1	435261-313-R-J1-PDC tumor spheroid viability	viability, T/C	67.3
CC1(C)CCC(CN2CCN(c3ccc(C(=O)NS(=O)(=O)c4ccc(NCC5CCOCC5)c([N+](=O)[O-])c4)c(Oc4cnc5[nH]ccc5c4)c3)CC2)=C(c2ccc(Cl)cc2)C1 + CC(Nc1ncnc2nc[nH]c12)c1cc2cccc(Cl)c2c(=O)n1-c1ccccc1	435261-313-R-J1-PDC tumor spheroid viability	viability, T/C	79.5
Cn1ncnc1[C@H]1c2n[nH]c(=O)c3cc(F)cc(c23)N[C@@H]1c1ccc(F)cc1 + CC(Nc1ncnc2nc[nH]c12)c1cc2cccc(Cl)c2c(=O)n1-c1ccccc1	435261-313-R-J1-PDC tumor spheroid viability	viability, T/C	59.2
CC1(C)CCC(CN2CCN(c3ccc(C(=O)NS(=O)(=O)c4ccc(NCC5CCOCC5)c([N+](=O)[O-])c4)c(Oc4cnc5[nH]ccc5c4)c3)CC2)=C(c2ccc(Cl)cc2)C1 + CC(Nc1ccc2c(c1)OCCn1cc(N3C(=O)OCC3C(F)F)nc1-2)C(N)=O	435261-313-R-J1-PDC tumor spheroid viability	viability, T/C	58.7
CC(=O)c1c(C)c2cnc(Nc3ccc(N4CCNCC4)cn3)nc2n(C2CCCC2)c1=O + CC(Nc1ncnc2nc[nH]c12)c1cc2cccc(Cl)c2c(=O)n1-c1ccccc1	435261-313-R-J1-PDC tumor spheroid viability	viability, T/C	107
CC(Cn1ccc(-c2ccc(C#N)c(Cl)c2)n1)NC(=O)c1cc(C(C)O)[nH]n1 (stereo not given) + Cc1nc(NC(=O)N2CCCC2C(N)=O)sc1-c1ccnc(C(C)(C)C(F)(F)F)c1	435261-313-R-J1-PDC tumor spheroid viability	viability, T/C	107
